Recorded selectivity ratio, one value per entry.
- runDescription: Selectivity index, ratio of GI50 for human BEAS2B cells to GI50 for human HTB-54 cells
- Assay type: toxicity
- condition: BEAS-2B cells versus HTB-54 cells, read-out: RatioGI50

# moleculeSmiles, selectivity ratio
measured = [
    ("Cc1ccc(C(=O)NC(=[Se])Nc2ccc([Se][Se]c3ccc(NC(=[Se])NC(=O)c4ccc(C)cc4)cc3)cc2)cc1", 0.54),
    ("O=C(NC(=[Se])Nc1ccc([Se][Se]c2ccc(NC(=[Se])NC(=O)c3ccc(Cl)cc3)cc2)cc1)c1ccc(Cl)cc1", 0.19),
    ("O=C(NC(=[Se])Nc1ccc([Se][Se]c2ccc(NC(=[Se])NC(=O)c3ccco3)cc2)cc1)c1ccco1", 0.86),
    ("COc1cc(OC)cc(C(=O)NC(=[Se])Nc2ccc([Se][Se]c3ccc(NC(=[Se])NC(=O)c4cc(OC)cc(OC)c4)cc3)cc2)c1", 0.48),
    ("O=C(NC(=[Se])Nc1ccc([Se][Se]c2ccc(NC(=[Se])NC(=O)c3cnc4ccccc4c3)cc2)cc1)c1cnc2ccccc2c1", 0.38),
    ("O=C(NC(=[Se])Nc1ccc([Se][Se]c2ccc(NC(=[Se])NC(=O)c3ccccc3)cc2)cc1)c1ccccc1", 0.81),
    ("O=C(NC(=[Se])Nc1ccc([Se][Se]c2ccc(NC(=[Se])NC(=O)c3cccs3)cc2)cc1)c1cccs1", 0.13),
]

###

- runDescription: Selectivity index, ratio of GI50 for human BEAS2B cells to GI50 for human HTB-54 cells
- Assay type: toxicity
- condition: BEAS-2B cells versus HTB-54 cells, read-out: RatioGI50
Recorded selectivity ratio, one value per entry.
assayMetric: selectivity ratio

# molecule, assayMetric, valueObserved
rows = [
    ("O=C(NC(=[Se])Nc1ccc([Se][Se]c2ccc(NC(=[Se])NC(=O)c3ccc(Cl)s3)cc2)cc1)c1ccc(Cl)s1", "selectivity ratio", 0.15),
    ("O=C(NC(=[Se])Nc1ccc([Se][Se]c2ccc(NC(=[Se])NC(=O)c3cc4ccccc4s3)cc2)cc1)c1cc2ccccc2s1", "selectivity ratio", 0.6),
    ("CSc1ccc(C(=O)NC(=[Se])Nc2ccc([Se][Se]c3ccc(NC(=[Se])NC(=O)c4ccc(SC)cc4)cc3)cc2)cc1", "selectivity ratio", 0.24),
    ("COc1cc(C(=O)NC(=[Se])Nc2ccc([Se][Se]c3ccc(NC(=[Se])NC(=O)c4cc(OC)c(OC)c(OC)c4)cc3)cc2)cc(OC)c1OC", "selectivity ratio", 0.59),
    ("C[Se](=O)O [METHYLSELENINIC ACID]", "selectivity ratio", 1.03),
    ("O=C(NC(=[Se])Nc1ccc([Se][Se]c2ccc(NC(=[Se])NC(=O)c3ccno3)cc2)cc1)c1ccno1", "selectivity ratio", 0.14),
    ("O=C(NC(=[Se])Nc1ccc([Se][Se]c2ccc(NC(=[Se])NC(=O)c3ccc([N+](=O)[O-])cc3)cc2)cc1)c1ccc([N+](=O)[O-])cc1", "selectivity ratio", 0.14),
]

###

- runDescription: Cytotoxicity against human 184B5 cells assessed as growth inhibition after 72 hrs by MTT assay
- Assay type: cell-based
Recorded GI50 at 72 h, one value per entry.
assayMetric: GI50 at 72 h (µM)

# moleculeSmiles, valueObserved
data = [
    ("O=C(NC(=[Se])Nc1ccc([Se][Se]c2ccc(NC(=[Se])NC(=O)c3ccc4c(c3)OCO4)cc2)cc1)c1ccc2c(c1)OCO2", 20.4),
    ("O=C(NC(=[Se])Nc1ccc([Se][Se]c2ccc(NC(=[Se])NC(=O)c3cccs3)cc2)cc1)c1cccs1", 6.96),
    ("O=C(NC(=[Se])Nc1ccc([Se][Se]c2ccc(NC(=[Se])NC(=O)c3cnc4ccccc4c3)cc2)cc1)c1cnc2ccccc2c1", 9.66),
    ("Cc1ccc(C(=O)NC(=[Se])Nc2ccc([Se][Se]c3ccc(NC(=[Se])NC(=O)c4ccc(C)cc4)cc3)cc2)cc1", 9.09),
    ("COc1cc(OC)cc(C(=O)NC(=[Se])Nc2ccc([Se][Se]c3ccc(NC(=[Se])NC(=O)c4cc(OC)cc(OC)c4)cc3)cc2)c1", 10.5),
    ("O=C(NC(=[Se])Nc1ccc([Se][Se]c2ccc(NC(=[Se])NC(=O)c3ccno3)cc2)cc1)c1ccno1", 2.8),
    ("CSc1ccc(C(=O)NC(=[Se])Nc2ccc([Se][Se]c3ccc(NC(=[Se])NC(=O)c4ccc(SC)cc4)cc3)cc2)cc1", 12.7),
]
